Values from ChEMBL document CHEMBL1155050

# Experimental system: UniProt:P23975
# Method summary: Inhibition of [3H]NA reuptake in human noradrenaline transporter expressed in HEK293 cells
Readout type: IC50 (nM)

I = CSc1ccc(Oc2ccc(Cl)cc2CN(C)C)cc1
II = CN(C)Cc1ccccc1Oc1cccc(Cl)c1
III = CN(C)Cc1ccccc1Oc1ccc(C2CC2)cc1
IV = CN(C)Cc1ccccc1Sc1cccc(C(F)(F)F)c1
V = CN(C)Cc1ccccc1C(O)c1ccc(Cl)c(Cl)c1 (racemic)
Which order do these fall in by IC50? Give them lowest to highest. The response must list the labels following the requested ordering.
II, III, IV, V, I

---

# Experimental system: Sodium-dependent serotonin transporter (Homo sapiens, UniProt P31645)
# Sequence (P31645 whole entry): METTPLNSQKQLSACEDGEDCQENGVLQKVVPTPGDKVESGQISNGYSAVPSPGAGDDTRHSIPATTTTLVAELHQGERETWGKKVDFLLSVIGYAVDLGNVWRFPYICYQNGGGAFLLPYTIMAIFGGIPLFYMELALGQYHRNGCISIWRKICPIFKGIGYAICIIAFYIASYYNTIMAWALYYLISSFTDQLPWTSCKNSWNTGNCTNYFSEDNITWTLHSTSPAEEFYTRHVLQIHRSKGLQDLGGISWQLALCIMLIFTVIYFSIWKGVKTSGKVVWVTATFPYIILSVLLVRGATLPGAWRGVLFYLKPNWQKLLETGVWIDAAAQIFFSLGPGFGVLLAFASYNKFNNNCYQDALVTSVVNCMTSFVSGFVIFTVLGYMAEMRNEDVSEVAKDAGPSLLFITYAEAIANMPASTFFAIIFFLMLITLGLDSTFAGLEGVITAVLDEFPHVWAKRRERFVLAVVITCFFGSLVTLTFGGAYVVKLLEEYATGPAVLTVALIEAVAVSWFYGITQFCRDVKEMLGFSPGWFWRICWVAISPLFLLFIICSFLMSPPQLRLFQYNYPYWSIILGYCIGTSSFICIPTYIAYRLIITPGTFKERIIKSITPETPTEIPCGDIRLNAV
# Method summary: Inhibition of [3H]5HT reuptake at human serotonin transporter expressed in HEK293 cells
Readout type: IC50 (µM)

[
  {
    "Compound": "CN(C)Cc1cc(S(N)(=O)=O)ccc1Sc1cccc(C(F)(F)F)c1",
    "Recorded measurement": 0.03
  },
  {
    "Compound": "CN(C)Cc1cc(CNS(C)(=O)=O)ccc1Oc1ccc(OC(F)(F)F)cc1",
    "Recorded measurement": 0.011
  },
  {
    "Compound": "CSc1ccc(Oc2ccc(Cl)cc2CN(C)C)cc1",
    "Recorded measurement": 0.004
  }
]

A = CN(C)Cc1ccccc1Oc1ccc(OC(F)(F)F)cc1
B = CN(C)Cc1ccccc1Sc1ccc(C(F)(F)F)cc1
Response body: label of entry with the larger IC50; valid values A , B . Give the chosen item's label as your response.
B

A = CNCc1ccccc1Cc1ccc(Cl)c(Cl)c1
B = CN(C)Cc1cc(NS(C)(=O)=O)ccc1Sc1ccc(C(F)(F)F)cc1
Response body: label of entry with the larger IC50; valid values A , B . Give the chosen item's label as your response.
A
(A: 0.03 µM, B: 0.003 µM)

---

# Experimental system: Sodium-dependent noradrenaline transporter (Homo sapiens, UniProt P23975)
# Sequence (P23975 whole entry): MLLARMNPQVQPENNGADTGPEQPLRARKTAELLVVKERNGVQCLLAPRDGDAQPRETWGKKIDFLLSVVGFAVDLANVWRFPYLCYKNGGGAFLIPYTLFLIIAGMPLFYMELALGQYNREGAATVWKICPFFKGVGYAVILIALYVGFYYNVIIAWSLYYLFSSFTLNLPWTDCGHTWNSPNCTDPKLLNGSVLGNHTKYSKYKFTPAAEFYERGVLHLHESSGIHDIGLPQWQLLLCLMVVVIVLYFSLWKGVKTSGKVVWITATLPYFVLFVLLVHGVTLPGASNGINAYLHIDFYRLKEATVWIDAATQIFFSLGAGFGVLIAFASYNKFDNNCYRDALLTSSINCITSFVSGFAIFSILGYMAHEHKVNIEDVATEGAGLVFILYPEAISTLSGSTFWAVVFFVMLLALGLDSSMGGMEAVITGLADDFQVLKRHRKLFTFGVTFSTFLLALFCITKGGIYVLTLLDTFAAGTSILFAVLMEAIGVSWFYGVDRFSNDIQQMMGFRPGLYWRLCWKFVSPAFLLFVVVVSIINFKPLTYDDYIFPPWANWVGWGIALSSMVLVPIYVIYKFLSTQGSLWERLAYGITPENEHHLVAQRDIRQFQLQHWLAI
# Method summary: Inhibition of [3H]NA reuptake in human noradrenaline transporter expressed in HEK293 cells
# Type: cell-based
Readout type: IC50 (nM)

P = CN(C)Cc1cc(S(N)(=O)=O)ccc1Cc1ccc(Cl)c(Cl)c1
Q = CNC(=O)c1ccc(Oc2ccc(OC(F)(F)F)cc2)c(CN(C)C)c1
R = CN(C)Cc1ccccc1Oc1ccc(Cl)cc1
S = CN(C)Cc1cc(NS(C)(=O)=O)ccc1Oc1ccc(C(F)(F)F)cc1
Which order do these fall in by IC50? Give them lowest to highest. The response must list the labels following the requested ordering.
R, S, P, Q

---

# Experimental system: Sodium-dependent serotonin transporter (Homo sapiens, UniProt P31645)
# Method summary: Inhibition of [3H]5HT reuptake at human serotonin transporter expressed in HEK293 cells
Readout type: IC50 (nM)

Some solved cases for reference:
[
  {
    "Smiles str": "CNCc1cc(S(N)(=O)=O)ccc1Cc1ccc(Cl)c(Cl)c1",
    "IC50, nM": 6
  },
  {
    "Smiles str": "CN(C)Cc1cc(S(N)(=O)=O)ccc1Sc1ccc(C(F)(F)F)cc1",
    "IC50, nM": 26
  },
  {
    "Smiles str": "CN(C)Cc1ccccc1C(=O)c1ccc(Cl)c(Cl)c1",
    "IC50, nM": 50
  },
  {
    "Smiles str": "CCOc1ccc(Oc2ccccc2CN(C)C)cc1",
    "IC50, nM": 30
  }
]

1 = CNC(=O)c1ccc(Oc2ccc(OC(F)(F)F)cc2)c(CN(C)C)c1
2 = COc1ccc(Oc2ccccc2CN(C)C)cc1
Input pair: 1 , 2 . Output: entry with lower IC50. Give the chosen item's label as your response.
1
(1: 10 nM, 2: 25 nM)

---

# Experimental system: Sodium-dependent noradrenaline transporter (Homo sapiens, UniProt P23975)
# Method summary: Inhibition of [3H]NA reuptake in human noradrenaline transporter expressed in HEK293 cells
# Type: cell-based
Readout type: IC50 (nM)

I = CN(C)Cc1cc(CNS(C)(=O)=O)ccc1Oc1ccc(OC(F)(F)F)cc1
II = CNCc1cc(C(N)=O)ccc1Cc1ccc(Cl)c(Cl)c1
Response body: label of entry with the larger IC50; valid values I , II . Give the chosen item's label as your response.
I

I = CSc1ccc(Sc2ccc(N(C)S(C)(=O)=O)cc2CN(C)C)cc1
II = CN(C)Cc1ccccc1Oc1ccc(Br)cc1
III = CN(C)Cc1ccccc1Oc1ccc(Cl)c(Cl)c1
IV = CN(C)Cc1cc(C(=O)N(C)C)ccc1Oc1ccc(OC(F)(F)F)cc1
Could you please sort these 4 entries by IC50 from high to low? The response must list the labels following the requested ordering.
II, IV, III, I

---

# Experimental system: Sodium-dependent serotonin transporter (Homo sapiens, UniProt P31645)
# Method summary: Inhibition of [3H]5HT reuptake at human serotonin transporter expressed in HEK293 cells
pIC50: −log10 of the molar value.
Readout type: pIC50

[
  {
    "Molecule": "CN(C)Cc1cc(C(=O)N(C)C)ccc1Oc1ccc(OC(F)(F)F)cc1",
    "Experimental system": "Sodium-dependent serotonin transporter (Homo sapiens, UniProt P31645)",
    "pIC50": 7.00
  },
  {
    "Molecule": "CN(C)Cc1ccccc1Sc1cccc(Cl)c1",
    "Experimental system": "Sodium-dependent serotonin transporter (Homo sapiens, UniProt P31645)",
    "pIC50": 7.92
  }
]

P = CN(C)Cc1ccccc1Oc1ccc(Br)cc1
Q = CC(c1ccc(Cl)c(Cl)c1)c1ccccc1CN(C)C (racemic)
Input pair: P , Q . Output: entry with lower pIC50. Give the chosen item's label as your response.
Q
